protocol text: In vitro plasma protein binding
Assay type: in vitro ADME
The following compounds are listed with their measured fraction unbound values.
Give only the figure.

Take a look at these entries with their results.
molecule_smiles=CC(=O)Nc1cccc(Nc2ncnc(N3CCC(Oc4ccc(Cl)cc4)CC3)n2)c1C result_number=0.013
molecule_smiles=CC(=O)Nc1cccc(Nc2ncnc(N3CC(Oc4ccc(F)cc4)C3)n2)c1C result_number=0.164
molecule_smiles=CC(=O)Nc1cccc(Nc2ncnc(N3CCC(OCc4ccc(F)c(F)c4)CC3)n2)c1C result_number=0.067

Exercise: If you can, please state the reported fraction unbound value of CC(=O)Nc1cc(Nc2ncnc(N3CC=C(c4ccc(C#N)cc4)CC3)n2)ccc1F .
Solution: 0.009

Exercise: If you can, please state the reported fraction unbound value of CC(=O)Nc1cccc(Nc2ncnc(N3CCC(Oc4ccc(Cl)c(C)c4)CC3)n2)c1C .
Solution: 0.006

Exercise: If you can, please state the reported fraction unbound value of CC(=O)Nc1cccc(Nc2ncnc(N3CCc4cc(OC(F)(F)F)ccc4C3)n2)c1 .
Solution: 0.001

Exercise: If you can, please state the reported fraction unbound value of CC(=O)Nc1cccc(Nc2ncnc(N3CCC(Oc4ccc(Cl)c(F)c4)CC3)n2)c1C .
Solution: 0.006

====

The following compounds are listed with their measured pIC50 values.
experimental system: rat Nav1.7 (Rattus norvegicus)
Sequence (O08562 whole entry): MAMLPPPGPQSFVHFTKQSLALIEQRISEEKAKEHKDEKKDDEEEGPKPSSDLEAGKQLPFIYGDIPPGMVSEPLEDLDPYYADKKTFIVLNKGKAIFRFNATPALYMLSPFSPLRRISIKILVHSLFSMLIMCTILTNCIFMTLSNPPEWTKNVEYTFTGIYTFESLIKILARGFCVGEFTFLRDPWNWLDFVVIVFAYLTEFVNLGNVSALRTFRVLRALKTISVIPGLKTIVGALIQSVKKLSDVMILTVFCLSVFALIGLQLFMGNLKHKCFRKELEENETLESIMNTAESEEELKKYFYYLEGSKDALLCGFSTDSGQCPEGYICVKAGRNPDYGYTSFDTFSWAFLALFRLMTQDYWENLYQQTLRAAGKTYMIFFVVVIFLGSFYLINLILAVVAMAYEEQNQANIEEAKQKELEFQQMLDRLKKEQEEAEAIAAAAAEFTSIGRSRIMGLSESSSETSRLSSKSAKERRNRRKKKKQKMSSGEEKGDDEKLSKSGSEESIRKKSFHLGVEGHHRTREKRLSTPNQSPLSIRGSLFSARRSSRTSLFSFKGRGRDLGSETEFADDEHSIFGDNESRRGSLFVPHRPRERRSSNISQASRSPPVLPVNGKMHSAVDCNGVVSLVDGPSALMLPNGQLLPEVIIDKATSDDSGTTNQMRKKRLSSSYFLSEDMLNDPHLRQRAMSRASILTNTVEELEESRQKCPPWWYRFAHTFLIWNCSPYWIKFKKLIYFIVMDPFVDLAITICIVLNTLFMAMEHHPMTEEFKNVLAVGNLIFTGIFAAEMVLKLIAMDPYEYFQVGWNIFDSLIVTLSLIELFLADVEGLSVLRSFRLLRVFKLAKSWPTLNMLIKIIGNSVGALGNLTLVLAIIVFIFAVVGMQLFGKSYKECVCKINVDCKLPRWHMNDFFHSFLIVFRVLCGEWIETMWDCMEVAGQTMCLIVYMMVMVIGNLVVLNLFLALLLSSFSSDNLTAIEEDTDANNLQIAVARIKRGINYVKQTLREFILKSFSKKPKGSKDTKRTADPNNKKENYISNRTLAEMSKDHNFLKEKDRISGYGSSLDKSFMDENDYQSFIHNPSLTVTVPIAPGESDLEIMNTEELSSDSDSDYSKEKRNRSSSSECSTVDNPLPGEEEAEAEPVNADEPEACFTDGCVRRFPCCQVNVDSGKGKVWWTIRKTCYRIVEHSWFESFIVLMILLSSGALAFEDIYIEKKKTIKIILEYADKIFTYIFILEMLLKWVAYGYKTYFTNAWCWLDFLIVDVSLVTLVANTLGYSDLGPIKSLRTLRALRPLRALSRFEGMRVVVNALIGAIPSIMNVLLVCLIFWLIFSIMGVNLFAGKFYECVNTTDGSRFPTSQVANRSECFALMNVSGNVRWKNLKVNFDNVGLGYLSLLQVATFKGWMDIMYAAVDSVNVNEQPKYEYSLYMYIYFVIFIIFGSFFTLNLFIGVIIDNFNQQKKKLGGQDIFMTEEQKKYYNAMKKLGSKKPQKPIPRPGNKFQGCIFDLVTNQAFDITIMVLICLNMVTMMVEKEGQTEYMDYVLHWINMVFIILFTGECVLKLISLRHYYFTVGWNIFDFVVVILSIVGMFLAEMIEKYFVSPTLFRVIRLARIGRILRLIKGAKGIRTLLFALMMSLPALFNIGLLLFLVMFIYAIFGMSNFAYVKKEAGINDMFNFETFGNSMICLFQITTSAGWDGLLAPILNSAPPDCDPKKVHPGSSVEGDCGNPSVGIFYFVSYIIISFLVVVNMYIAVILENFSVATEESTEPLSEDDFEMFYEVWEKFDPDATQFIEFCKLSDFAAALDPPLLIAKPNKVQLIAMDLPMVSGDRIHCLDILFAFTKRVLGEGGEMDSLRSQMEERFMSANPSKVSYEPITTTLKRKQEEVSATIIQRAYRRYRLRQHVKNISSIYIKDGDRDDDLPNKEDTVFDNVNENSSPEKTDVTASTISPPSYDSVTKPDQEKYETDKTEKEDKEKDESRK
protocol text: PatchXpress automated electrophysiology on rat Nav1.7
test parameters: 20%-inactivated rat Nav1.7
Value format note: pIC50 is -log10 of concentration (mol/L); just state the number.

compound="CC(=O)Nc1cccc(Nc2ncnc(N3CCC(Oc4ccc(Cl)c(C)c4)CC3)n2)c1C [Compound B]" experimental_system="rat Nav1.7 (Rattus norvegicus)" result_number=5.46
compound="CC(=O)Nc1cc(Nc2ncnc(N3CC=C(c4ccc(C#N)cc4)CC3)n2)ccc1F [Compound E]" experimental_system="rat Nav1.7 (Rattus norvegicus)" result_number=5.46
compound="CC(=O)Nc1cccc(Nc2ncnc(N3CCc4cc(OC(F)(F)F)ccc4C3)n2)c1 [Compound F]" experimental_system="rat Nav1.7 (Rattus norvegicus)" result_number=6.00
compound="CC(=O)Nc1cccc(Nc2ncnc(N3CCC(Oc4ccc(Cl)cc4)CC3)n2)c1C [Compound A]" experimental_system="rat Nav1.7 (Rattus norvegicus)" result_number=6.28

Exercise: If you can, please state the reported pIC50 value of CC(=O)Nc1cccc(Nc2ncnc(N3CCC(Oc4ccc(Cl)c(F)c4)CC3)n2)c1C [Compound G] .
Solution: 6.10

Exercise: If you can, please state the reported pIC50 value of CC(=O)Nc1cccc(Nc2ncnc(N3CCC(OCc4ccc(F)c(F)c4)CC3)n2)c1C [Compound D] .
Solution: 5.77

Exercise: If you can, please state the reported pIC50 value of CC(=O)Nc1cccc(Nc2ncnc(N3CC(Oc4ccc(F)cc4)C3)n2)c1C [Compound C] .
Solution: 5.31

====

experimental system: hNav1.7 (Homo sapiens)
Construct: expressed in transfected cells; host or cells: HEK 293
Sequence (Q15858 whole entry): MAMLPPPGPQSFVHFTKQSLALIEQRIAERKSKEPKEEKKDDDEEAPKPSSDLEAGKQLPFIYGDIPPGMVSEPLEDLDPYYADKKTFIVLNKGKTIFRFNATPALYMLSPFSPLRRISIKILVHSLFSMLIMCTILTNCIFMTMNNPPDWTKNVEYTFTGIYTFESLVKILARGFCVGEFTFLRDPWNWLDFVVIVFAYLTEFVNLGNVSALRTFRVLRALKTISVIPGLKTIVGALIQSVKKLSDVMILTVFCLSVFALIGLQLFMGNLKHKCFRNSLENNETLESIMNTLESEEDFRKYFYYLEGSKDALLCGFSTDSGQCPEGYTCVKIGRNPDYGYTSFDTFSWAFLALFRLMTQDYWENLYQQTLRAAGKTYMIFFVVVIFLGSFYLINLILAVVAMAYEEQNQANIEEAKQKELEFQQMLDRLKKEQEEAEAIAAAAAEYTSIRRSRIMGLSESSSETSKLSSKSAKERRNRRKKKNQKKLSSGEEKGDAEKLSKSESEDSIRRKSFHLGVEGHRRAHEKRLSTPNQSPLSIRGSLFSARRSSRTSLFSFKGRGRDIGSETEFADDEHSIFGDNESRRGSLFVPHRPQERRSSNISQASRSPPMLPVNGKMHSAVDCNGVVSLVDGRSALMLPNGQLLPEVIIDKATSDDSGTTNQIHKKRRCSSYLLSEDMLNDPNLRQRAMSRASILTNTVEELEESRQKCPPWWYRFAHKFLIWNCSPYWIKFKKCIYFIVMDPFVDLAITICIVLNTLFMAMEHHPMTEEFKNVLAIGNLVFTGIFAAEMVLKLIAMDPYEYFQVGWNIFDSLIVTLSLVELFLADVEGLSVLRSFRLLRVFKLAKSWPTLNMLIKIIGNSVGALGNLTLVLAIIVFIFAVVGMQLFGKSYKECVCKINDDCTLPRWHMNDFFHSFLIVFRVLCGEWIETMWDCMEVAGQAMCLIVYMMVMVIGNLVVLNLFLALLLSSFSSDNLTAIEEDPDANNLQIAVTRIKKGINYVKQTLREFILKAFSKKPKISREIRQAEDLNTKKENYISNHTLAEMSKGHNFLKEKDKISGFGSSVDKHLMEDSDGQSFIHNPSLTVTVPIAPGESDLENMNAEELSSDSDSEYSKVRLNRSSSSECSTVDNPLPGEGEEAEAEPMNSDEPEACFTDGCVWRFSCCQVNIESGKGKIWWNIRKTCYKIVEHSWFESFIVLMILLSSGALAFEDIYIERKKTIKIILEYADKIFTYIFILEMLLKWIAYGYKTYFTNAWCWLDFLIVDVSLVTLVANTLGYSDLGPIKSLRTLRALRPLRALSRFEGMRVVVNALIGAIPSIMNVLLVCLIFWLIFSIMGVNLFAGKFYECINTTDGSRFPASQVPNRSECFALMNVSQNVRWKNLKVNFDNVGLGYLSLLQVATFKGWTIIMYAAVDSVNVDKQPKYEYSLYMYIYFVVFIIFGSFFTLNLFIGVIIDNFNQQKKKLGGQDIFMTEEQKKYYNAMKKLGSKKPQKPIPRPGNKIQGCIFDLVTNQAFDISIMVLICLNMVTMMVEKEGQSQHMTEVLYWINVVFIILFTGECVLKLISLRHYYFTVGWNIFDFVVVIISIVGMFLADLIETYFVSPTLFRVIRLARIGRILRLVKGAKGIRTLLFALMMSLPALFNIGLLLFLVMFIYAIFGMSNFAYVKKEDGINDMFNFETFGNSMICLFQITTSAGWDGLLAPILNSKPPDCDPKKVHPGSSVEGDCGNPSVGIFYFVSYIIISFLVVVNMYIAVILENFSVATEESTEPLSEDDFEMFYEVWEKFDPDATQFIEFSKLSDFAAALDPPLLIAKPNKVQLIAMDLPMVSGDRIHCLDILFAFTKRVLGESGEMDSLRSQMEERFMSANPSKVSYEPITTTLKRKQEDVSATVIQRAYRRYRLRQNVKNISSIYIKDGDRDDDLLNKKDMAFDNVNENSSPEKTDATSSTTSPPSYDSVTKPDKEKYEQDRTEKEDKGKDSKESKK
protocol text: Manual whole cell patch clamp electrophysiology on HEK 293 cells stably expressing hNav1.7
Format: cell-based
test parameters: IC50 (μM) 20%-inactivated, 20%-inactivated human Nav1.7; holding voltage set to produce 20% fractional inactivation
Procedure: Except as indicated, recordings to determine potency of aminotriazines on Nav1.7 were made with manual electrophysiology. HEK 293 cells stably expressing hNav1.7 were voltage-clamped using the whole cell patch clamp configuration. […] A full current-voltage relation was recorded from each cell, and cells with poor space clamp as indicated by discontinuous I-V relation or by prolonged or nonexponential current kinetics were discarded. […]
The following compounds are listed with their measured IC50 values.

molecule_smiles=CC(=O)Nc1cccc(Nc2ncnc(N3CC(Oc4ccc(F)cc4)C3)n2)c1C experimental_system="hNav1.7 (Homo sapiens)" result="1.3 µM"
molecule_smiles=CC(=O)Nc1cccc(Nc2ncnc(N3CCC(OCc4ccc(F)c(F)c4)CC3)n2)c1C experimental_system="hNav1.7 (Homo sapiens)" result="0.6 µM"
molecule_smiles=CC(=O)Nc1cc(Nc2ncnc(N3CC=C(c4ccc(C#N)cc4)CC3)n2)ccc1F experimental_system="hNav1.7 (Homo sapiens)" result="0.09 µM"
molecule_smiles=CC(=O)Nc1cccc(Nc2ncnc(N3CCC(Oc4ccc(Cl)c(F)c4)CC3)n2)c1C experimental_system="hNav1.7 (Homo sapiens)" result="0.3 µM"
molecule_smiles=CC(=O)Nc1cccc(Nc2ncnc(N3CCC(Oc4ccc(Cl)cc4)CC3)n2)c1C experimental_system="hNav1.7 (Homo sapiens)" result="0.19 µM"
molecule_smiles=CC(=O)Nc1cccc(Nc2ncnc(N3CCc4cc(OC(F)(F)F)ccc4C3)n2)c1 experimental_system="hNav1.7 (Homo sapiens)" result="0.18 µM"

Exercise: If you can, please state the reported IC50 value of CC(=O)Nc1cccc(Nc2ncnc(N3CCC(Oc4ccc(Cl)c(C)c4)CC3)n2)c1C .
Solution: 0.5 µM
